testedSystem: T1, human a-PD-L1 Fc (Sino Biological, 10084-H02H, LC11NO2402) (human, UniProt Q9NZQ7 19-239)
T1 construct: Bought Fc fusion immobilised on the SPR chip; Printed as 'a-PD-L1 Fc' but used as the antigen (ligand) for the anti-PD-L1 scFvs; also called Human PD-L1; not shown: Fc part
T1 sequence (Q9NZQ7 19-239 limits assumed): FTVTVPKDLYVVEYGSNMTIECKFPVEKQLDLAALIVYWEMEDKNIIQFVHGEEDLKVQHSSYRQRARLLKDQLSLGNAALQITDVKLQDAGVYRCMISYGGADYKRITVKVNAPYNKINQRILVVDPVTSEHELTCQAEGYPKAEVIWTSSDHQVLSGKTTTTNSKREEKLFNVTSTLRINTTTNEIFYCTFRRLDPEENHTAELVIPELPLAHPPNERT
assayOverview: SPR, PD-L1 Fc immobilised, scFv analyte, 1:1 fit
experimentalEndpoint: Kd
Be sure to follow the number with its unit.

PRO2988 (scFv 37-20-B03-sc09.1_(P48A)) (scFv, PRO2230 variant; VH substitution, AHo numbering; also called PRO2230 P48A) scFv: DIQMTQSPASLSASVGDRVTITCQASQSIGTYLAWYQQKPGKPPKLLIYRAFILASGVPSRFSGSGSGTDFTLTISSLQPEDFATYYCQSNFYSDSTTIGPNAFGTGTKVTVLGGGGGSGGGGSGGGGSGGGGSEVQLVESGGGLVQPGGSLRLSCAASGFSFNSDYWIYWVRQAAGKGLEWIASIYGGSSGNTQYASWAQGRFTISRDNSKNTVYLQMNSLRAEDTAVYFCARGYVDYGGATDLWGQGTLVTVSS    0.034 nM
PRO3310 (scFv 37-20-B03-sc09.1_(L12R, T101R, L144A, T146Q)) (scFv, PRO2230 variant; VH substitutions, AHo numbering; also called PRO2230 L12R-T101R-L144A-T146Q) scFv: DIQMTQSPASLSASVGDRVTITCQASQSIGTYLAWYQQKPGKPPKLLIYRAFILASGVPSRFSGSGSGTDFTLTISSLQPEDFATYYCQSNFYSDSTTIGPNAFGTGTKVTVLGGGGGSGGGGSGGGGSGGGGSEVQLVESGGGRVQPGGSLRLSCAASGFSFNSDYWIYWVRQAPGKGLEWIASIYGGSSGNTQYASWAQGRFTISRDNSKNTVYLQMNSLRAEDRAVYFCARGYVDYGGATDLWGQGTAVQVSS    0.038 nM

Entry PRO3342 (scFv 37-20-B03-sc09.1_(T101K, T146D)) (scFv, PRO2230 variant; VH substitutions, AHo numbering; also called PRO2230 T101K-T146D) scFv: DIQMTQSPASLSASVGDRVTITCQASQSIGTYLAWYQQKPGKPPKLLIYRAFILASGVPSRFSGSGSGTDFTLTISSLQPEDFATYYCQSNFYSDSTTIGPNAFGTGTKVTVLGGGGGSGGGGSGGGGSGGGGSEVQLVESGGGLVQPGGSLRLSCAASGFSFNSDYWIYWVRQAPGKGLEWIASIYGGSSGNTQYASWAQGRFTISRDNSKNTVYLQMNSLRAEDKAVYFCARGYVDYGGATDLWGQGTLVDVSS — recorded Kd = 0.038 nM
